Property: SPOT peptide array binding signal intensity; scope: individual binders
target-entity: ScMyo5
experiment-description: SPOT peptide array binding signal intensity (averaged, normalized) (arbitrary units (background-subtracted, floor 0; scale differs between SH3 domains)); higher = stronger binding of the SH3 domain to the peptide

Solved entries (count: 2):
| binder | val |
| --- | --- |
| LKRITSPPLPPRADS | ≤ 0 |
| DAPASKPSVPPRNYF | ≤ 0 |

In: Entry DKKTKPTPPPKPSHL has what SPOT peptide array binding signal intensity?
Out: ≤ 0
